Source: ChEMBL document CHEMBL1641382

# Assay summary: Inhibition of Sprague-Dawley rat imidazoline I2 receptor
# Ki per record follows
Respond with the bare value in µM.

{"Molecular string": "Br.NCC[C@H]1CNC(Nc2cccc(Cl)c2)=N1", "Ki, µM": 20.3}

# lookup: Ki of "Br.NCC[C@H]1CNC(NCc2ccccc2)=N1"
7.5

Moving on to the next compound: "Br.NCC[C@H]1CNC(Nc2c(Cl)cccc2Cl)=N1"
2.43

Continue with "Br.COc1ccc(NC2=N[C@@H](CCN)CN2)cc1"
24.9

====

# Assay summary: Inhibition of Sprague-Dawley rat imidazoline I2 receptor
Listing: pKi of selected compounds
Units for pKi: none; it is -log10 of a concentration expressed in mol/L.

// below: answered compounds
{"Compound": "Br.CCC1(C2=N[C@@H](CCN)CN2)Cc2ccccc2O1 (stereo not given in full)", "pKi": 5.59}
{"Compound": "Br.NCC[C@H]1CNC(Nc2ccccc2Br)=N1", "pKi": 4.73}

What value of pKi has been recorded for this entry: Br.NCC[C@@H]1CNC(C2COc3ccccc3O2)=N1 (stereo not given in full)
5.02

Could you do the same for "Br.NCC[C@H]1CNC(c2ccccc2)=N1" , please?
5.45

Follow-up entry: "Br.NCC[C@H]1CNC(Nc2cccc(C(F)(F)F)c2)=N1"
4.90

====

The listing below reports IC50 for compounds tested on Nischarin (Rattus norvegicus, UniProt Q4G017).
Sequence (Q4G017 whole entry): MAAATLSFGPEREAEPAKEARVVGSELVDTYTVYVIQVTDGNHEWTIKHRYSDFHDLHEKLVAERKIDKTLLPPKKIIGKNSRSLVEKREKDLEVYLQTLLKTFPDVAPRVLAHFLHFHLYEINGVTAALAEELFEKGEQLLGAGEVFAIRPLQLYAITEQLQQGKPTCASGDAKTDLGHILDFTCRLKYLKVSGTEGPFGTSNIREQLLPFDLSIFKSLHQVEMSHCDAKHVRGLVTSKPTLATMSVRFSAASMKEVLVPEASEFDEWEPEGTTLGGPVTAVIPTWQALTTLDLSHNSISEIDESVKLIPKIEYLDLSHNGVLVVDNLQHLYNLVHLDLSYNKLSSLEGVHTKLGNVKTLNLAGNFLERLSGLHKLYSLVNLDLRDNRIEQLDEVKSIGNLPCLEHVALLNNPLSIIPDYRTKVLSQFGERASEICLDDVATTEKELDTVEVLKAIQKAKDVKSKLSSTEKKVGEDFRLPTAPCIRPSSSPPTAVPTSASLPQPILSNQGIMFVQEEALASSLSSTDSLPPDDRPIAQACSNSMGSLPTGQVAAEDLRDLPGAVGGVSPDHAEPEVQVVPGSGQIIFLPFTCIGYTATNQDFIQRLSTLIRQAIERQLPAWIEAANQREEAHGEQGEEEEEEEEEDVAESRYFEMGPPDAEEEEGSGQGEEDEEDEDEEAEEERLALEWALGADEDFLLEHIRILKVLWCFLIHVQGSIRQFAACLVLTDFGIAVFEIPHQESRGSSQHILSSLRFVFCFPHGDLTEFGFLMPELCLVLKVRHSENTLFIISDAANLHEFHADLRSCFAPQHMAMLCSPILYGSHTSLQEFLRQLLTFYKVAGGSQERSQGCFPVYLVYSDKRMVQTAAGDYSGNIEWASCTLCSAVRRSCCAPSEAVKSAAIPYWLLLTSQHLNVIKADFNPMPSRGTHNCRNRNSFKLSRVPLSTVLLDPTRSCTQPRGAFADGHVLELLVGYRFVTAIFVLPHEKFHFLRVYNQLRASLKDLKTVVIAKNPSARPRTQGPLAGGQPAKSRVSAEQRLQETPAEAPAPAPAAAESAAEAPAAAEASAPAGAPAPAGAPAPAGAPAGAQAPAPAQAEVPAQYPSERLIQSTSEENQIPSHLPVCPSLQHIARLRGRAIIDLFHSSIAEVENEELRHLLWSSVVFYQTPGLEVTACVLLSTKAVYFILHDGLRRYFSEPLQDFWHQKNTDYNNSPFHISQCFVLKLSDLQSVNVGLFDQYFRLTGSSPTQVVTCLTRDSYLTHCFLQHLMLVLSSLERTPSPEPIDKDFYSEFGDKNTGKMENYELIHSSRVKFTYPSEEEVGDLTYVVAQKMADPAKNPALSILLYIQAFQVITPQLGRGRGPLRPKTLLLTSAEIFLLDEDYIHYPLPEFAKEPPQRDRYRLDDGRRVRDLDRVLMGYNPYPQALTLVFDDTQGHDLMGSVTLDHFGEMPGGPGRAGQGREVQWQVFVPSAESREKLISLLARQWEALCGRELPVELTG
Hi! Could you send only the number? It should be in µM, unit omitted.

For orientation, consider the following solved cases.
{"Molecular string": "Br.NCC[C@H]1CNC(Nc2c(F)cccc2F)=N1", "Observed": 93.1}
{"Molecular string": "Br.COc1ccc(NC2=N[C@@H](CCN)CN2)cc1", "Observed": 79.8}
{"Molecular string": "Br.NCC[C@H]1CNC(CN(Cc2ccccc2)c2ccccc2)=N1", "Observed": 11.6}

// returns reported IC50 for input "Br.NCC[C@H]1CNC(NCc2ccccc2)=N1"
101

And for "Br.Cc1cccc(NC2=N[C@@H](CCN)CN2)n1" ?
7.78
